assay: physchem; conditions: buffer, pH 7.4
Description: Lipophilicity, log D of the compound at pH 7.4 by HPLC analysis
recorded-endpoint: logD

| smiles-entry | recorded-endpoint | experimental-result |
| --- | --- | --- |
| CC(C)(O)COCc1cccc(Nc2sc(-c3c(F)cc(C(C)(C)O)cc3F)cc2C(N)=O)n1 | logD | 2.6 |

====

assay: Plasma clearance in rat; format: ADME, organism-based
clearance values, listed per item
recorded-endpoint: clearance (mL/min/kg)

| smiles-entry | recorded-endpoint | experimental-result |
| --- | --- | --- |
| CC(C)(O)c1ccc(-c2cc(C(N)=O)c(Nc3cccc(CN4CCOCC4)n3)s2)cc1 | clearance | 1.3 |
| NC(=O)c1cc(-c2ccccc2F)sc1Nc1cccc(CN2CCOCC2)n1 | clearance | 38 |
| CC(C)(O)COCc1cccc(Nc2sc(-c3c(F)cc(C(C)(C)O)cc3F)cc2C(N)=O)n1 | clearance | 4.5 |
| Cc1cccc(Nc2sc(-c3ccccc3F)cc2C(N)=O)n1 | clearance | 181 |

====

half-life values, listed per item
assay: Half life of the compound at pH 2; assay type: physicochemical
recorded-endpoint: half-life

| smiles-entry | experimental-result |
| --- | --- |
| NC(=O)c1cc(-c2ccccc2)sc1Nc1cccc(C(F)(F)F)n1 | > 18 h |
| NC(=O)c1cc(-c2ccccc2)sc1Nc1ccccn1 | < 1 h |
| Cc1ccc(Nc2sc(-c3ccccc3)cc2C(N)=O)nc1 | < 1 h |
| Cc1cccc(Nc2sc(-c3ccccc3)cc2C(N)=O)n1 | > 18 h |
| Cc1ccnc(Nc2sc(-c3ccccc3)cc2C(N)=O)c1 | < 1 h |
| CS(=O)(=O)c1ccc(Nc2sc(-c3ccccc3)cc2C(N)=O)nc1 | > 18 h |
| NC(=O)c1cc(-c2ccccc2)sc1Nc1cc(F)ccn1 | < 1 h |
| NC(=O)c1cc(-c2ccccc2)sc1Nc1ccc(F)cn1 | 1 h |
| N#Cc1ccc(Nc2sc(-c3ccccc3)cc2C(N)=O)nc1 | > 18 h |

====

assay: Metabolic stability in rat hepatocytes assessed as compound remaining after 25 mins; assay type: ADME, cell-based, Hepatocyte; conditions: read-out: Stability

| smiles-entry | remaining at 25 min / % |
| --- | --- |
| NC(=O)c1cc(-c2ccccc2)sc1Nc1ccccn1 | 1 |

====

Vd values, listed per item
test: Volume of distribution in rat; type: ADME, organism-based; details: in vivo

| smiles-entry | Vd |
| --- | --- |
| Cc1cccc(Nc2sc(-c3ccccc3F)cc2C(N)=O)n1 | 11.8 L/kg |
| CC(C)(O)COCc1cccc(Nc2sc(-c3c(F)cc(C(C)(C)O)cc3F)cc2C(N)=O)n1 | 3.3 L/kg |
| CC(C)(O)c1ccc(-c2cc(C(N)=O)c(Nc3cccc(CN4CCOCC4)n3)s2)cc1 | 1.1 L/kg |
| NC(=O)c1cc(-c2ccccc2F)sc1Nc1cccc(CN2CCOCC2)n1 | 4.7 L/kg |

====

test: Half life in rat kidney microsomes; type: ADME
half-life values, listed per item

| smiles-entry | half-life, min |
| --- | --- |
| Cc1cccc(Nc2sc(-c3ccccc3F)cc2C(N)=O)n1 | 2 |
| Cc1cccc(Nc2sc(-c3cccc(F)c3)cc2C(N)=O)n1 | 13 |
| Cc1cccc(Nc2sc(-c3ccc(F)cc3F)cc2C(N)=O)n1 | 23 |
| Cc1cccc(Nc2sc(-c3ccc(F)cc3)cc2C(N)=O)n1 | 29 |
| Cc1cccc(Nc2sc(-c3ccc(C(F)(F)F)cc3)cc2C(N)=O)n1 | 53 |
| Cc1cccc(Nc2sc(-c3cccc(F)c3F)cc2C(N)=O)n1 | 5 |
| Cc1cccc(Nc2sc(-c3cccc(C(F)(F)F)c3)cc2C(N)=O)n1 | 29 |
| Cc1cccc(Nc2sc(-c3cccc(Cl)c3)cc2C(N)=O)n1 | 19 |
| Cc1cccc(Nc2sc(-c3ccccc3)cc2C(N)=O)n1 | 8 |
| Cc1cccc(Nc2sc(-c3ccccc3Cl)cc2C(N)=O)n1 | 3 |
